- Tested on: Blumeria graminis f. sp. tritici
- Assay Name: Test I: wheat powdery mildew, preventive spray on wheat seedlings, visual disease rating
- Test Conditions: wheat powdery mildew; rating marked with asterisk (*), not explained in the text shown
Marks after values point to notes of the source that are not given here.
Recorded Metric: Test I rating (disease control), value marked *

Field Test I rating (disease control), value marked * (Blumeria graminis f. sp. tritici), entry Cc1nn(C)c(Oc2ccc(Cl)cc2F)c1-c1ccc(F)cc1Cl [compound 158] : 96* %

Field Test I rating (disease control), value marked * (Blumeria graminis f. sp. tritici), entry COc1cc(Cl)c(Nc2c(-c3ccc(F)cc3Br)c(C)nn2C)c(Cl)c1 [compound 102] : 95* %

Field Test I rating (disease control), value marked * (Blumeria graminis f. sp. tritici), entry COc1cc(Cl)c(Nc2c(-c3ccc(F)cc3Cl)c(C)nn2C)c(Cl)c1 [compound 85] : 99* %

Field Test I rating (disease control), value marked * (Blumeria graminis f. sp. tritici), entry Cc1nn(C)c(Nc2c(F)cc(Br)cc2F)c1-c1ccc(F)cc1Br [compound 163] : 100* %

Field Test I rating (disease control), value marked * (Blumeria graminis f. sp. tritici), entry Cc1nn(C)c(Oc2ccc(C#N)cc2F)c1-c1ccc(F)cc1F [compound 159] : 96* %

Field Test I rating (disease control), value marked * (Blumeria graminis f. sp. tritici), entry Cc1nn(C)c(Oc2c(F)cc(C#N)cc2F)c1-c1c(F)cc(F)cc1F [Compound 8] : 60* %

Field Test I rating (disease control), value marked * (Blumeria graminis f. sp. tritici), entry Cc1nn(C)c(Nc2c(Cl)cc(Cl)cc2Cl)c1-c1ccc(F)cc1Br [compound 174] : 99* %

---

- Tested on: Septoria tritici
- Assay Name: Test M (M1-M5): wheat leaf blotch, Compound 81 alone and in mixtures, observed and Colby expected control
- Assay type: in vivo
- Test Conditions: component (b) 0.08 ppm alone
Recorded Metric: Test M2 Obsd, disease control rating (%)
State just the number; it will be interpreted in %.

Just so you know, measured Test M2 Obsd, disease control rating for `Cn1cc(C(=O)Nc2ccc(F)cc2-c2ccc(Cl)c(Cl)c2)c(C(F)F)n1` came out at 0

Just so you know, measured Test M2 Obsd, disease control rating for `CC1CCN(c2c(-c3c(F)cc(F)cc3F)c(Cl)nc3ncnn23)CC1` came out at 0

Just so you know, measured Test M2 Obsd, disease control rating for CC(C)CC(C)c1sccc1NC(=O)c1cn(C)nc1C(F)(F)F (stereo not shown) came out at 0

Just so you know, measured Test M2 Obsd, disease control rating for CC(C)C1C2CCC1c1c(NC(=O)c3cn(C)nc3C(F)F)cccc12 (stereo not shown) came out at 0

---

Field: Test B rating (disease control). Provide a value for each of the compounds that follow.
- Tested on: Alternaria solani
- Assay Name: Test B: tomato early blight, preventive spray on tomato seedlings, visual disease rating
- Test Conditions: tomato early blight; 100 = 100% disease control, 0 = no disease control relative to the controls
State just the number; it will be interpreted in %.

Field Test B rating (disease control) (Alternaria solani), entry `Cc1nn(C)c(Nc2ccccc2F)c1-c1ccc(F)cc1Cl` : 93

Field Test B rating (disease control) (Alternaria solani), entry `COc1cc(F)c(-c2c(C)nn(C)c2Oc2c(F)cc(Cl)cc2F)c(F)c1` : 100

Field Test B rating (disease control) (Alternaria solani), entry `Cc1nn(C)c(Nc2ccc(C#N)cc2Cl)c1-c1ccc(F)cc1Cl` : 0

Field Test B rating (disease control) (Alternaria solani), entry `Cc1nn(C)c(Nc2ccc(F)cc2F)c1-c1ccc(F)cc1Cl` : 100

Field Test B rating (disease control) (Alternaria solani), entry `Cc1nn(C)c(Oc2ccc(C#N)cc2Cl)c1-c1ccc(Cl)cc1Cl` : 0

Field Test B rating (disease control) (Alternaria solani), entry `Cc1nn(C)c(Nc2ccc(Br)cc2Cl)c1-c1ccc(F)cc1F` : 0

Field Test B rating (disease control) (Alternaria solani), entry `Cc1nn(C)c(Nc2c(F)cc(C#N)cc2F)c1-c1ccc(F)cc1F` : 99

Field Test B rating (disease control) (Alternaria solani), entry `Cc1nn(C)c(Nc2ccc(F)cc2Cl)c1-c1ccc(Cl)cc1Cl` : 0

Field Test B rating (disease control) (Alternaria solani), entry `Cc1nn(C)c(Nc2ccc(Br)cc2F)c1-c1ccc(F)cc1Cl` : 58

Field Test B rating (disease control) (Alternaria solani), entry `Cc1nn(C)c(Nc2ccc(Br)cc2Cl)c1-c1ccc(F)cc1Br` : 0

Field Test B rating (disease control) (Alternaria solani), entry `Cc1nn(C)c(Nc2ccc(F)cc2Br)c1-c1ccc(F)cc1Br` : 97

Field Test B rating (disease control) (Alternaria solani), entry `Cc1nn(C)c(Nc2c(F)cc(C#N)cc2F)c1-c1c(F)cc(F)cc1F` : 100

Field Test B rating (disease control) (Alternaria solani), entry `Cc1nn(C)c(Nc2c(Cl)cc(Br)cc2Cl)c1-c1ccc(F)cc1Br` : 0

Field Test B rating (disease control) (Alternaria solani), entry `COc1cc(F)c(-c2c(C)nn(C)c2Oc2c(F)cc(Br)cc2F)c(F)c1` : 95

Field Test B rating (disease control) (Alternaria solani), entry `COc1ccc(-c2c(C)nn(C)c2Nc2ccc(F)cc2F)c(Cl)c1` : 99

Field Test B rating (disease control) (Alternaria solani), entry `Cc1nn(C)c(Oc2c(F)cc(C#N)cc2F)c1-c1ccccc1Br` : 97

Field Test B rating (disease control) (Alternaria solani), entry `Cc1nn(C)c(Oc2c(F)cc(C#N)cc2F)c1-c1ccc(F)cc1F` : 99

Field Test B rating (disease control) (Alternaria solani), entry `COc1cc(F)c(Nc2c(-c3c(F)cccc3Cl)c(C)nn2C)c(F)c1` : 99

Field Test B rating (disease control) (Alternaria solani), entry `Cc1nn(C)c(Nc2c(Cl)cc(F)cc2Cl)c1-c1ccc(Cl)cc1Cl` : 0
